The following molecules are shown together with reported INHIBITION values.
System: Plasmodium berghei
Assay: Screen against P. berghei liver stage (PbLuc), transformed with Luciferase, at 10uM
Assay type: functional, HepG2
Conditions: tested at 10 uM
Out of some 69,000 compounds screened, about 8,600 (12%) showed an effect of 50% or more. This excerpt belongs to a sample that is enriched for strong results.
Form entry: enter the amount, then its unit.

Inquiry: So what's the measured INHIBITION for this one? CCCn1cc(Cl)c(C(=O)N2C[C@@H](O)[C@H](NC(C)=O)C2)n1
Reply text: 0.65%

Inquiry: Try this molecule too: CC(C)N1CCC(C(=O)N2CCC(c3ccc(F)cc3)C2)CC1 (stereo unspecified)
Reply text: 73%

Inquiry: Try this molecule too: COc1ccc(CN2C[C@@H]3COC[C@]3(CN(C)C)C2)cc1
Reply text: 20.5%

Inquiry: Try this molecule too: COCC(=O)N1CCC2(CC1)COc1ccccc1S(=O)(=O)N(C)C2
Reply text: 66.8%

Inquiry: Try this molecule too: Cc1nc(C)n(C2CCCN(C(=O)CCOCC(C)C)C2)n1 (stereo unspecified)
Reply text: 7.27%

Inquiry: Try this molecule too: O=C(c1cc(F)ccc1O)N1CCN(C(=O)C2CCC2)CC1
Reply text: 6.11%
